- EXPERIMENTAL_DETAILS: Rat plasma protein binding of tofacitinib
- Type: in vitro ADME
- TEST_SETTINGS: Sprague-Dawley, rat, plasma, Plasma protein binding, 5 µg/mL; plasma of CON rats
RECORDED_METRIC: fraction unbound at 5 µg/mL
Would you mind answering with just the numeric figure?

Memo: C[C@@H]1CCN(C(=O)CC#N)C[C@@H]1N(C)c1ncnc2[nH]ccc12 [tofacitinib, Tofacitinib] , reported fraction unbound at 5 µg/mL: 0.363

----------
- EXPERIMENTAL_DETAILS: Rat plasma protein binding of tofacitinib
- Type: in vitro ADME
- TEST_SETTINGS: Sprague-Dawley, rat, plasma, Plasma protein binding, 5 µg/mL; plasma of ALI rats
RECORDED_METRIC: fraction unbound at 5 µg/mL
Would you mind answering with just the numeric figure?

Memo: C[C@@H]1CCN(C(=O)CC#N)C[C@@H]1N(C)c1ncnc2[nH]ccc12 , reported fraction unbound at 5 µg/mL: 0.358

----------
- EXPERIMENTAL_DETAILS: in vivo
- TEST_SETTINGS: Sprague-Dawley, rat, plasma, iv, 10 mg/kg, CON rats (control)
RECORDED_METRIC: AUC (ng·h/mL)
State just the number; it will be interpreted in ng·h/mL.

Memo: C[C@@H]1CCN(C(=O)CC#N)C[C@@H]1N(C)c1ncnc2[nH]ccc12 [tofacitinib, Tofacitinib] , reported AUC: 4070
